Hey, just so you know, these numbers are from the supplement of paper PMC10307832.

- Tested on: NCI-H2347
- protocol-description: relative viability (nuclei count vs DMSO), 5 days (fraction); higher = more cells survive
- conditions-used: first compound 0.08 µM
# note: exactly 0.8 is not below, so it is n; use y for relative viability strictly under it

Cc1cnc(-c2cnc(NCCNc3ccc(C#N)cn3)nc2-c2ccc(Cl)cc2Cl)[nH]1 + CC1(C)CCC(c2ccc(Cl)cc2)=C(CN2CCN(c3ccc(C(=O)NS(=O)(=O)c4ccc(N[C@H](CCN5CCOCC5)CSc5ccccc5)c(S(=O)(=O)C(F)(F)F)c4)cc3)CC2)C1 [Navitoclax] (partner 0.5 µM)	n
Cc1cnc(-c2cnc(NCCNc3ccc(C#N)cn3)nc2-c2ccc(Cl)cc2Cl)[nH]1 + COc1cc2c(Oc3ccc(NC(=O)C4(C(=O)Nc5ccc(F)cc5)CC4)cc3F)ccnc2cc1OCCCN1CCOCC1 [Foretinib] (partner 0.25 µM)	n
Cc1cnc(-c2cnc(NCCNc3ccc(C#N)cn3)nc2-c2ccc(Cl)cc2Cl)[nH]1 + CCNC(=O)c1noc(-c2cc(C(C)C)c(O)cc2O)c1-c1ccc(CN2CCOCC2)cc1 [Luminespib] (partner 0.01 µM)	y
O=c1[nH]c2ccccc2n1C1CCN(CCCC(c2ccc(F)cc2)c2ccc(F)cc2)CC1 [Pimozide] + CS(=O)(=O)CCNCc1ccc(-c2ccc3ncnc(Nc4ccc(OCc5cccc(F)c5)c(Cl)c4)c3c2)o1 [Lapatinib] (partner 2 µM)	n
O=c1[nH]c2ccccc2n1C1CCN(CCCC(c2ccc(F)cc2)c2ccc(F)cc2)CC1 [Pimozide] + C[C@]1(O)C[C@@H](c2nc(-c3ccc4ccc(-c5ccccc5)nc4c3)c3c(N)nccn32)C1 [Linsitinib] (partner 1 µM)	n

Switching to the query record.
// query In the record for O=c1[nH]c2ccccc2n1C1CCN(CCCC(c2ccc(F)cc2)c2ccc(F)cc2)CC1 [Pimozide] + COc1cc2c(Oc3ccc(NC(=O)C4(C(=O)Nc5ccc(F)cc5)CC4)cc3F)ccnc2cc1OCCCN1CCOCC1 [Foretinib] (partner 0.25 µM) , is relative viability less than 0.8?
// result n

---

molecules and their reported relative viability
- Tested on: NCI-H661
- protocol-description: relative viability (nuclei count vs DMSO), 5 days (fraction); higher = more cells survive
- conditions-used: first compound 0.253 µM
When you answer, write just the number.

Cc1cnc(-c2cnc(NCCNc3ccc(C#N)cn3)nc2-c2ccc(Cl)cc2Cl)[nH]1 + Cc1cc(Nc2cc(N3CCN(C)CC3)nc(Sc3ccc(NC(=O)C4CC4)cc3)n2)n[nH]1 [Tozasertib] (partner 0.1 µM)	0.378

Kindly review the next molecule as well.
// query Specify relative viability for O=c1[nH]c2ccccc2n1C1CCN(CCCC(c2ccc(F)cc2)c2ccc(F)cc2)CC1 [Pimozide] + C[C@]1(O)C[C@@H](c2nc(-c3ccc4ccc(-c5ccccc5)nc4c3)c3c(N)nccn32)C1 [Linsitinib] (partner 1 µM) and stop.
// result 0.422

---

- Test system: EMC-BAC-2
- protocol-description: relative viability (nuclei count vs DMSO), 5 days (fraction); higher = more cells survive
- conditions-used: first compound 0.005 µM
observable: relative viability
# respond with the number and nothing more

Consider the reported relative viability for these compounds:
COc1cc2nccc(Oc3ccc(NC(=O)Nc4cc(C)on4)c(Cl)c3)c2cc1OC [Tivozanib] + O=C(CCCCCCC(=O)Nc1ccccc1)NO [Vorinostat] (partner 1 µM)	0.281
COc1cc2nccc(Oc3ccc(NC(=O)Nc4cc(C)on4)c(Cl)c3)c2cc1OC [Tivozanib] + CS(=O)(=O)CCNCc1ccc(-c2ccc3ncnc(Nc4ccc(OCc5cccc(F)c5)c(Cl)c4)c3c2)o1 [Lapatinib] (partner 2 µM)	0.954
COc1cc2nccc(Oc3ccc(NC(=O)Nc4cc(C)on4)c(Cl)c3)c2cc1OC [Tivozanib] + C[C@]1(O)C[C@@H](c2nc(-c3ccc4ccc(-c5ccccc5)nc4c3)c3c(N)nccn32)C1 [Linsitinib] (partner 1 µM)	0.847
Nc1ccn([C@@H]2O[C@H](CO)[C@@H](O)[C@@H]2O)c(=O)n1 [Cytarabine] + CS(=O)(=O)CCNCc1ccc(-c2ccc3ncnc(Nc4ccc(OCc5cccc(F)c5)c(Cl)c4)c3c2)o1 [Lapatinib] (partner 2 µM)	0.857
Nc1ccn([C@@H]2O[C@H](CO)[C@@H](O)[C@@H]2O)c(=O)n1 [Cytarabine] + Cc1cc(Nc2cc(N3CCN(C)CC3)nc(Sc3ccc(NC(=O)C4CC4)cc3)n2)n[nH]1 [Tozasertib] (partner 0.1 µM)	0.302

// query Fill in relative viability for record COc1cc2nccc(Oc3ccc(NC(=O)Nc4cc(C)on4)c(Cl)c3)c2cc1OC [Tivozanib] + NC(=O)Nc1cc(-c2cccc(F)c2)sc1C(=O)N[C@H]1CCCNC1 [AZD7762] (partner 0.2 µM)
// result 1.06

// query Give the value of relative viability reported for the following: Nc1ccn([C@@H]2O[C@H](CO)[C@@H](O)[C@@H]2O)c(=O)n1 [Cytarabine] + O=C(c1cc(Cc2n[nH]c(=O)c3ccccc23)ccc1F)N1CCN(C(=O)C2CC2)CC1 [Olaparib] (partner 8 µM)
// result 0.53

// query Specify relative viability for COc1cc2nccc(Oc3ccc(NC(=O)Nc4cc(C)on4)c(Cl)c3)c2cc1OC [Tivozanib] + CCNC(=O)c1noc(-c2cc(C(C)C)c(O)cc2O)c1-c1ccc(CN2CCOCC2)cc1 [Luminespib] (partner 0.01 µM) and stop.
// result 1.13

// query Indicate the recorded relative viability value for this compound: Nc1ccn([C@@H]2O[C@H](CO)[C@@H](O)[C@@H]2O)c(=O)n1 [Cytarabine] + C[C@]1(O)C[C@@H](c2nc(-c3ccc4ccc(-c5ccccc5)nc4c3)c3c(N)nccn32)C1 [Linsitinib] (partner 1 µM)
// result 0.695
